molecular target: human PAR4 (Homo sapiens, UniProt Q96RI0); test: PAR4 FLIPR assay: antagonism of agonist-peptide-induced calcium mobilization in PAR4-expressing HEK293 cells; settings: H-Ala-Phe(4-F)-[…]NH2-induced intracellular calcium mobilization, 11-point curves
Sequence (Q96RI0 18-385): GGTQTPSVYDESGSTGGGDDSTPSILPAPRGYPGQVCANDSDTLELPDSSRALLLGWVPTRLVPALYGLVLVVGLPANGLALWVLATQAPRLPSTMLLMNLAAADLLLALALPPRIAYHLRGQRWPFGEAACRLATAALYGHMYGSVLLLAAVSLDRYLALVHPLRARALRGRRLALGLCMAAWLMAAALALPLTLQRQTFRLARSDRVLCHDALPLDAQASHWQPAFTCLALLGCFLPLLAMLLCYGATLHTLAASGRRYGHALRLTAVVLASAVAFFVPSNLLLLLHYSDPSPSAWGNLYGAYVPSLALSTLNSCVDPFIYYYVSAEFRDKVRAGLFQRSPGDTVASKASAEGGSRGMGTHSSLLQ
IC50 less than 5 nM is y; IC50 greater than or equal to 5 nM is n.

Use these answered entries as a reference point.
- COMPOUND_STRUCTURE: "CCOc1cnc2c(-c3nc4cc(F)c(O[C@@H](C)[C@@H](C)OC(=O)Nc5cnc(C)nc5)cc4s3)cc(Cl)cc2c1"
  ASSIGNED_CLASS: "n"
- COMPOUND_STRUCTURE: "COc1ccc2oc(-c3cc(C)cc4nc(OC)cnc34)cc2c1"
  ASSIGNED_CLASS: "y"
- COMPOUND_STRUCTURE: "COc1cnc2c(-c3nc4c(Cl)cc(OCCNS(=O)(=O)c5ccc(F)cc5)cc4s3)cc(C)cc2n1"
  ASSIGNED_CLASS: "y"
- COMPOUND_STRUCTURE: "COCc1cnc2c(-c3nc4c(C)cc(OC(F)(F)F)cc4s3)cc(C)cc2n1"
  ASSIGNED_CLASS: "y"
- COMPOUND_STRUCTURE: "COc1cnc2c(-c3nc4cc(F)c(OC[C@@H](C)OC(=O)Nc5ccc(C(=O)N6CC[C@@H](CO)C6)nc5)cc4s3)cc(C)cc2n1"
  ASSIGNED_CLASS: "n"
- COMPOUND_STRUCTURE: "Cc1cc(-c2nc3c(C)cc(OCCNS(=O)(=O)c4ccc(F)cc4)cc3s2)c2ncc(OCF)nc2c1"
  ASSIGNED_CLASS: "y"

In the following, a different molecule is considered.
Data request: Lab note: IC50 threshold 5 nM. Does this molecule come in strictly under it? `COc1cc(NC(=O)O[C@H](C)[C@H](C)Oc2cc3sc(-c4cc(C)cc5nc(OC)cnc45)nc3cc2F)ccn1`
Data returned: y
